src = ChEMBL document CHEMBL2010768

assay: Cmax in rat at 50 to 600 mg/kg, po qd for 7 days measured after 7 days washout period
Format: ADME, organism-based
Parameters: dose 50-600 mg/kg, route oral
recorded conditions: in vivo

[
  {
    "compound": "Cc1nc2c(C#N)cccc2n1-c1ccc(C(=O)NC2CC2)s1",
    "Cmax / ng/mL": 29000
  }
]

====

As shown below, each of these compounds has a reported CLhep predicted value.
assay: Clearance in human liver microsomes by LC-MS/MS analysis
Format: ADME, Microsome

[
  {
    "compound": "Cc1cc(F)c2c(c1)ncn2-c1ccc(C(=O)NC2CC2)s1",
    "CLhep predicted": "11 mL/min/kg"
  },
  {
    "compound": "O=C(NC1CC1)c1ccc(-n2cnc3cc(C(F)(F)F)ccc32)s1",
    "CLhep predicted": "8 mL/min/kg"
  },
  {
    "compound": "Cc1nc2c(Br)cccc2n1-c1ccc(C(=O)NC2CC2)s1",
    "CLhep predicted": "5 mL/min/kg"
  },
  {
    "compound": "Cc1nc2ccc(F)cc2n1-c1ccc(C(=O)NC2CC2)s1",
    "CLhep predicted": "< 4 mL/min/kg"
  },
  {
    "compound": "Cc1nc2c(Cl)cccc2n1-c1ccc(C(=O)NC2CC2)s1",
    "CLhep predicted": "< 4 mL/min/kg"
  },
  {
    "compound": "Cc1cc(F)c2nc(C)n(-c3ccc(C(=O)NC4CC4)s3)c2c1",
    "CLhep predicted": "12 mL/min/kg"
  },
  {
    "compound": "Cc1nc2cc(C(F)(F)F)ccc2n1-c1ccc(C(=O)NC2CC2)s1",
    "CLhep predicted": "4 mL/min/kg"
  },
  {
    "compound": "Cc1nc2c(C#N)cccc2n1-c1ccc(C(=O)NC2CC2)s1",
    "CLhep predicted": "< 4 mL/min/kg"
  },
  {
    "compound": "Cc1cccc2c1nc(C)n2-c1ccc(C(=O)NC2CC2)s1",
    "CLhep predicted": "10 mL/min/kg"
  },
  {
    "compound": "O=C(NC1CC1)c1ccc(-n2cnc3c(F)cccc32)s1",
    "CLhep predicted": "10 mL/min/kg"
  },
  {
    "compound": "Cc1ccc2c(c1)nc(C)n2-c1ccc(C(=O)NC2CC2)s1",
    "CLhep predicted": "8 mL/min/kg"
  }
]

====

assay: Volume of distribution at steady state in dog at 1 mg/kg, iv by LC-MS/MS analysis
Format: ADME, organism-based, Canis lupus familiaris
Design: dose 1 mg/kg, route intravenous
recorded conditions: in vivo, read-out: Vdss
metric name: Vd (L/kg)

[
  {
    "compound": "Cc1nc2c(C#N)cccc2n1-c1ccc(C(=O)NC2CC2)s1",
    "metric name": "Vd",
    "val": 0.279
  }
]

====

assay: Oral bioavailability in rat at 3 mg/kg by LC-MS/MS analysis
Type: ADME, organism-based
recorded conditions: in vivo

[
  {
    "compound": "Cc1nc2c(C#N)cccc2n1-c1ccc(C(=O)NC2CC2)s1",
    "bioavailability (%)": 49
  }
]

====

Tested on: Plasmodium falciparum
assay: Antiplasmodial activity against Plasmodium falciparum 3D7 infected in […] after 72 hrs by SYBR green assay
Assay type: functional, organism-based
recorded conditions: 3D7, 72 h
Lab note: class by IC50, see c1: < 20 nM; c2: ≥ 20 nM and < 90 nM; c3: ≥ 90 nM

[
  {
    "compound": "CN(C)c1nc2ccccc2n1-c1ccc(C(=O)NC2CC2)s1",
    "class label": "c3"
  },
  {
    "compound": "Cc1nc2c(Cl)cc(F)cc2n1-c1ccc(C(=O)NC2CC2)s1",
    "class label": "c1"
  },
  {
    "compound": "O=C(NC1CC1)c1ccc(-n2c(C(F)(F)F)nc3ccccc32)s1",
    "class label": "c3"
  },
  {
    "compound": "Cc1nc2ccc(C(F)(F)F)cc2n1-c1ccc(C(=O)NC2CC2)s1",
    "class label": "c2"
  },
  {
    "compound": "Cc1ccc2nc(C)n(-c3ccc(C(=O)NC4CC4)s3)c2c1",
    "class label": "c2"
  },
  {
    "compound": "O=C(NC1CC1)c1ccc(-n2c(=O)[nH]c3ccccc32)s1",
    "class label": "c3"
  },
  {
    "compound": "Cc1nc2c(C#N)cccc2n1-c1ccc(C(=O)NC2CC2)s1",
    "class label": "c1"
  },
  {
    "compound": "Cc1nc2c(N(C)C)cccc2n1-c1ccc(C(=O)NC2CC2)s1",
    "class label": "c2"
  },
  {
    "compound": "COc1cccc2c1nc(C)n2-c1ccc(C(=O)NC2CC2)s1",
    "class label": "c2"
  },
  {
    "compound": "Cc1ccc2c(c1)nc(C)n2-c1ccc(C(=O)NC2CC2)s1",
    "class label": "c2"
  },
  {
    "compound": "Cc1nc2cc(OC(F)(F)F)ccc2n1-c1ccc(C(=O)NC2CC2)s1",
    "class label": "c1"
  },
  {
    "compound": "O=C(NC1CC1)c1ccc(-n2cnc3cc(C(F)(F)F)ccc32)s1",
    "class label": "c1"
  },
  {
    "compound": "NC(=O)c1ccc(-n2cnc3ccccc32)s1",
    "class label": "c3"
  },
  {
    "compound": "CNC(=O)c1ccc(-n2cnc3ccccc32)s1",
    "class label": "c3"
  },
  {
    "compound": "O=C(NC1CCCC1)c1ccc(-n2cnc3ccccc32)s1",
    "class label": "c3"
  },
  {
    "compound": "CCCc1nc2ccccc2n1-c1ccc(C(=O)NC2CC2)s1",
    "class label": "c3"
  },
  {
    "compound": "Cc1cc(F)c2c(c1)ncn2-c1ccc(C(=O)NC2CC2)s1",
    "class label": "c2"
  },
  {
    "compound": "Cc1nc2ccc(F)cc2n1-c1ccc(C(=O)NC2CC2)s1",
    "class label": "c3"
  },
  {
    "compound": "Cc1cccc2c1nc(C)n2-c1ccc(C(=O)NC2CC2)s1",
    "class label": "c1"
  },
  {
    "compound": "O=C(NC1CC1)c1ccc(-n2cnc3c(F)cccc32)s1",
    "class label": "c1"
  },
  {
    "compound": "Cc1cc(F)c2nc(C)n(-c3ccc(C(=O)NC4CC4)s3)c2c1",
    "class label": "c1"
  },
  {
    "compound": "Cc1cc(F)c2ncn(-c3ccc(C(=O)NC4CC4)s3)c2c1",
    "class label": "c1"
  },
  {
    "compound": "O=C(NC1CC1)c1ccc(-n2cnc3ccccc32)s1",
    "class label": "c2"
  },
  {
    "compound": "Cc1nc2cc(Cl)ccc2n1-c1ccc(C(=O)NC2CC2)s1",
    "class label": "c2"
  },
  {
    "compound": "Cc1cccc2nc(C)n(-c3ccc(C(=O)NC4CC4)s3)c12",
    "class label": "c3"
  },
  {
    "compound": "O=C(NC1CCC1)c1ccc(-n2cnc3ccccc32)s1",
    "class label": "c3"
  },
  {
    "compound": "Cc1nc2c(F)cccc2n1-c1ccc(C(=O)NC2CC2)s1",
    "class label": "c1"
  },
  {
    "compound": "CCCNC(=O)c1ccc(-n2cnc3ccccc32)s1",
    "class label": "c3"
  },
  {
    "compound": "Cc1nc2c(Cl)cccc2n1-c1ccc(C(=O)NC2CC2)s1",
    "class label": "c1"
  },
  {
    "compound": "CCCCNC(=O)c1ccc(-n2cnc3ccccc32)s1",
    "class label": "c3"
  },
  {
    "compound": "CCc1nc2ccccc2n1-c1ccc(C(=O)NC2CC2)s1",
    "class label": "c3"
  },
  {
    "compound": "Cc1nc2c(OC(F)F)cccc2n1-c1ccc(C(=O)NC2CC2)s1",
    "class label": "c1"
  },
  {
    "compound": "CC(C)NC(=O)c1ccc(-n2cnc3ccccc32)s1",
    "class label": "c3"
  },
  {
    "compound": "O=C(NC1CC1)c1ccc(-n2cnc3c(Cl)cc(F)cc32)s1",
    "class label": "c1"
  },
  {
    "compound": "CCNC(=O)c1ccc(-n2cnc3ccccc32)s1",
    "class label": "c3"
  },
  {
    "compound": "Cc1nc2ccc(OC(F)(F)F)cc2n1-c1ccc(C(=O)NC2CC2)s1",
    "class label": "c2"
  },
  {
    "compound": "CN(C)C(=O)c1ccc(-n2cnc3ccccc32)s1",
    "class label": "c3"
  },
  {
    "compound": "Cc1nc2c(Br)cccc2n1-c1ccc(C(=O)NC2CC2)s1",
    "class label": "c1"
  },
  {
    "compound": "Cc1nc2c(OCC(F)F)cccc2n1-c1ccc(C(=O)NC2CC2)s1",
    "class label": "c3"
  }
]
